experimentDescription: Caspase-3/7 induction in CHO-K1 cells by small molecules, qHTS cell viability counter screen (AID 1346979); further: nearly all actives have a fitted effect of over 35% in size
conditionSet: CellTiter-Fluor fluorescence, 17 h; series mostly up to 92.4 µM
Records with an inconclusive call do not appear. Calls of active or inactive are those of the source. The call rests on the fitted dose curve; in most records, active means well fitted cell-killing curve with a large enough effect in the repeat runs; inconclusive means weak or mixed curves, or effect the other way; inactive means no such curve, though single readings can be large or run the other way.
Classes used: T for active, F for inactive

> print(dat)
                                   compound  labelvalue
1      C=C1CCC2CC1C2(C)C (stereo not drawn)           F
2  Nc1cccc2c1CN(C1CCC(=O)NC1=O)C2=O (stereo not drawn)           F
3  CCC1NC(=O)c2cc(S(N)(=O)=O)c(Cl)cc2N1 (stereo not drawn)           F
4                                  CCC=CC#N           F
5  O=C1C(=O)c2ccccc2C(O)=C1C1CCC(c2ccc(Cl)cc2)CC1 (stereo not drawn)           T
6                                    C1COC1           F
7                       CCOC(=O)c1ccc(I)cc1           F
8                       CC(C)=CC(=O)C=C(C)C           F

###

tgt: Thyrotropin receptor (Homo sapiens) (UniProt P16473)
Sequence (P16473 whole entry, looked up): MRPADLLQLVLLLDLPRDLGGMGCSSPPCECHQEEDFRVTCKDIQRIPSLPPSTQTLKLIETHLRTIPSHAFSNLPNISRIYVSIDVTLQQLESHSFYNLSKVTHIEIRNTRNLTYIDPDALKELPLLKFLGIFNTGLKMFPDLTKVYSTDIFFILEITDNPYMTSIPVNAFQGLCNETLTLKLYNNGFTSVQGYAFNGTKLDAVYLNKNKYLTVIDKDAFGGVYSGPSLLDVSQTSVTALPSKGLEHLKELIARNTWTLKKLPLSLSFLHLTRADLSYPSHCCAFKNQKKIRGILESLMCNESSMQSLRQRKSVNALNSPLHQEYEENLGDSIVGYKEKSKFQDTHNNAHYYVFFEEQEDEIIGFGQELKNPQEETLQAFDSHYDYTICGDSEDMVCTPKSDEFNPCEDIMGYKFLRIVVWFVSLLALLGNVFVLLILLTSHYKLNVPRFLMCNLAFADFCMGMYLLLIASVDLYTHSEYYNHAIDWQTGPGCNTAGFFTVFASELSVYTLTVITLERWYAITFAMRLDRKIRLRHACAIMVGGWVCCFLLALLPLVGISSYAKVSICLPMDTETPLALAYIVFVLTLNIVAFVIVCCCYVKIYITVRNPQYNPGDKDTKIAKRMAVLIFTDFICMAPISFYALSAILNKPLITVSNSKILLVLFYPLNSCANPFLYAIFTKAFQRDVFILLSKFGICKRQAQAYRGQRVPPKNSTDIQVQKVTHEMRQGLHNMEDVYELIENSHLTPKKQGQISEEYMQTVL
experimentDescription: qHTS assay to identify small molecule antagonists of the thyroid stimulating hormone receptor (TSHR) signaling pathway (AID 1259385); further: nearly all actives have a fitted effect of over 20% in size
conditionSet: TSHR-HEK293 cAMP HTRF, TSH-stimulated antagonist mode; series mostly up to 92.4 µM
Results filed as inconclusive are left out. Active and inactive are the calls of the source. Calls come from the whole dose curve.
Possible outcomes: 1.0 = active, 0.0 = inactive

molecule	labelValue
OC1(c2ccccc2)CCNCC1	0.0
O=C=Nc1ccc(Cl)c(Cl)c1	0.0
C=CCc1ccccc1OCC(O)CNC(C)C (configuration not stated)	0.0
Cc1cccc(O)c1N	0.0
CCC1NC(=O)c2cc(S(N)(=O)=O)c(Cl)cc2N1 (configuration not stated)	0.0
CCOc1ccc(Cc2nccc3cc(OCC)c(OCC)cc23)cc1OCC	0.0
Cc1cc2c(OCC(CNC(C)(C)C)OC(=O)c3ccccc3)cccc2[nH]1 (configuration not stated)	0.0
CCCCC(CC)CN (configuration not stated)	0.0
CC1(C)S[C@@H]2[C@H](NC(=O)C(c3ccccc3)S(=O)(=O)O)C(=O)N2[C@H]1C(=O)O (some centres not stated)	0.0
COC(=O)CCS	0.0
CC(C)C(O)(c1ccc(OC(F)(F)F)cc1)c1cncnc1 (configuration not stated)	0.0
NC(=O)c1ccncc1	0.0
O=C1NC(=O)c2cc([N+](=O)[O-])ccc21	0.0
O=[N+]([O-])c1cc(C2CCCCC2)c(O)c([N+](=O)[O-])c1	0.0
CC(=O)Oc1ccc([N+](=O)[O-])cc1CCl	0.0
C=Cc1ccc(S(=O)(=O)O)cc1	1.0
C=C1C[C@@]23CC[C@H]4[C@@](C)(CCC[C@@]4(C)C(=O)O[C@@H]4O[C@H](CO)[C@@H](O)[C@H](O)[C@H]4O)[C@@H]2CC[C@]1(O[C@@H]1O[C@H](CO)[C@@H](O)[C@H](O[C@@H]2O[C@H](CO)[C@@H](O)[C@H](O)[C@H]2O)[C@H]1O[C@@H]1O[C@H](CO)[C@@H](O)[C@H](O)[C@H]1O)C3	0.0
